- test system: UniProt Q9NYW3
- Sequence (Q9NYW3 whole entry): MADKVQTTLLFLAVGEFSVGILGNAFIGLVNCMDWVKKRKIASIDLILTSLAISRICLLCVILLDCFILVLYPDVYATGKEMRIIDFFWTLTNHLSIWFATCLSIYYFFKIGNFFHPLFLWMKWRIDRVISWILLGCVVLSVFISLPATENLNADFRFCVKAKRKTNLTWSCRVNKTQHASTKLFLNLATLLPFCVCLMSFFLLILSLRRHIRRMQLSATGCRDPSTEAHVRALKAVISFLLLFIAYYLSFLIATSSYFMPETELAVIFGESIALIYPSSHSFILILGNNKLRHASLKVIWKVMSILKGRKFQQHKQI
- experiment: hT2R panel inhibition, transient HEK293 G16g44, agonist Chloroquine pH6.5 10 mM
- Assay type: cell-based
- measurement setup: HEK293, compound at 25 μM; receptor activated to EC80 with the corresponding agonist; read-out: screening result against bitter receptor 7
observed property: inhibition at 25 µM

Example cases with answers are listed next.
COc1ccc(CN(Cc2ccccc2)S(=O)(=O)c2ccc(C(=O)O)cc2)cn1; 60 to 80%
O=C(O)C1CCC(CN(Cc2ccc(F)cc2)S(=O)(=O)Cc2ccccc2)CC1 (stereo not shown); 20 to 40%
O=C(O)C1CCC(CN(Cc2ccc(F)cc2)S(=O)(=O)c2ccccc2)CC1 (stereo not shown); 20 to 40%

Per the records, this compound ( `Cc1ccc(S(=O)(=O)N(Cc2ccc(F)cc2)Cc2ccc(C(=O)O)cc2)cc1` ) has inhibition at 25 µM equal to 20 to 40%

inhibition at 25 µM reading for `O=C(O)c1ccc(S(=O)(=O)N(Cc2ccccc2)Cc2ccco2)cc1` : 40 to 60%

// `COc1ccc(CN(Cc2ccc(C(=O)O)cc2)S(=O)(=O)c2ccccc2)cc1` : inhibition at 25 µM value = 40 to 60%

Measured inhibition at 25 µM, `COc1ccc(CN(Cc2ccc(NC(C)=O)cc2)S(=O)(=O)c2ccc(C(=O)O)cc2)cc1` : 20 to 40%

// inhibition at 25 µM value for Cc1ccc(S(=O)(=O)N(Cc2ccccc2)CC2CCC(C(=O)O)CC2)cc1 (stereo not shown) : 40 to 60%

Value of measured inhibition at 25 µM for the entry `COc1ccc(CN(Cc2cccc(F)c2F)S(=O)(=O)c2ccc(C(=O)O)cc2)cc1` : 20 to 40%

inhibition at 25 µM reading for `O=C(O)c1ccc(CN(Cc2ccc(F)cc2)S(=O)(=O)c2ccccc2)cc1` : 20 to 40%

Reported inhibition at 25 µM for O=C(O)C1CCC(CN(Cc2ccc(F)cc2)S(=O)(=O)c2cccs2)CC1 (stereo not shown) was 20 to 40%

----------
- test system: hT2R8 (Homo sapiens (Human))
- Sequence (Q9NYW2 whole entry): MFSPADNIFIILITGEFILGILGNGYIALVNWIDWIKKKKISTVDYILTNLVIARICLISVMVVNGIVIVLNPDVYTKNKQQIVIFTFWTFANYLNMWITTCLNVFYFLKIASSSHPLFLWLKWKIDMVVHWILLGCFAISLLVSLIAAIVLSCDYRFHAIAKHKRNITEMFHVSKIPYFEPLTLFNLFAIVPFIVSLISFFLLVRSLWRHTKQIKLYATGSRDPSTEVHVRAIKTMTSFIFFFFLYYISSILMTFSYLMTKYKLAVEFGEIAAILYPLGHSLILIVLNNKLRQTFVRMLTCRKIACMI
- experiment: hT2R8 antagonist high-throughput FLIPR assay, stable cell line with G16g44, agonist andrographolide
- Type: cell-based
- measurement setup: table after Example 10-97; read-out: hT2R8 IC50
pIC50: −log10 of the molar value.
Entry flag: 1 if pIC50 reaches 7; -1 if it does not.

Worked cases, answers included:
Cc1noc(C)c1Cn1cc(N2C(=O)CN(Cc3cccc(CNC(=O)OC(C)(C)C)c3)C2=O)cn1; -1
Cc1noc(C)c1Cn1cc(N2C(=O)C(C)N(Cc3ccccc3)C2=O)cn1 (centres unmarked); 1
Cc1noc(C)c1Cn1cc(N2C(=O)CN(CCc3ccc(F)cc3)C2=O)cn1; 1
Cc1noc(C)c1Cn1cc(N2C(=O)NC(CCc3ccccc3)C2=O)cn1 (centres unmarked); -1

Dear colleague, could you confirm whether Cc1noc(C)c1Cn1cc(N2C(=O)NC(CC(=O)NCc3ccccc3)C2=O)cn1 (centres unmarked) has pIC50 at or above 7?
-1

Determine whether measured pIC50 meets or exceeds 7 for `CSc1ccccc1CN1CC(=O)N(c2cnn(Cc3c(C)noc3C)c2)C1=O`
1

----------
- test system: UniProtKB Q9NYW1
- Sequence (Q9NYW1 whole entry): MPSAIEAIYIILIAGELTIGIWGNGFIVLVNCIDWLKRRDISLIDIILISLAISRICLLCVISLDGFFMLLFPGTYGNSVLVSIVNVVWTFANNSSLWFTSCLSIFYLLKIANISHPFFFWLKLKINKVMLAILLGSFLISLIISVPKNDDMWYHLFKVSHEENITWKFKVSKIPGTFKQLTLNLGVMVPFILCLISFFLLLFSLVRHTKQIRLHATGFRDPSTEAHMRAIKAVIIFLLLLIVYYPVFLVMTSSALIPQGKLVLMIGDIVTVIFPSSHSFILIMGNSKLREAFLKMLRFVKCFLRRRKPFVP
- experiment: hT2R panel inhibition, transient HEK293 G16g44, agonist Ofloxacin 1 mM
- Type: cell-based
- measurement setup: HEK293, compound at 25 μM; receptor activated to EC80 with the corresponding agonist; read-out: screening result against bitter receptor 9
observed property: inhibition at 25 µM

Cc1ccc(S(=O)(=O)N(Cc2ccc(F)cc2)CC2CCC(C(=O)O)CC2)cc1 (stereo not shown); 20 to 40%
COc1ccc(CN(Cc2cc(OC)cc(OC)c2)S(=O)(=O)c2ccc(C(=O)O)cc2)cc1; 20 to 40%
COc1ccc(CN(Cc2ccc(F)cc2)S(=O)(=O)c2ccc(C(=O)O)cc2)cc1; 40 to 60%

Now for a further molecule.
For reference, reported inhibition at 25 µM for `COc1ccc(CN(Cc2ccccc2F)S(=O)(=O)c2ccc(C(=O)O)cc2)cc1` stands at 20 to 40%

----------
- test system: hT2R14 (Homo sapiens (Human), UniProt Q9NYV8)
- Sequence (Q9NYV8 whole entry): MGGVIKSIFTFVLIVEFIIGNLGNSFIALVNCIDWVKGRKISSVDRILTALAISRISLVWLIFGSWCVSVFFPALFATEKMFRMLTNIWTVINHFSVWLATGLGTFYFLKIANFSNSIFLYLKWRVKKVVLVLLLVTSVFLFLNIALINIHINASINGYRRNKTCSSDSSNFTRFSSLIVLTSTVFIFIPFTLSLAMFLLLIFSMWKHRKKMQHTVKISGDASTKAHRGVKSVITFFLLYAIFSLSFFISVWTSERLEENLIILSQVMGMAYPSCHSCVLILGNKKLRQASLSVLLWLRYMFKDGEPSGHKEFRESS
- experiment: hT2R panel inhibition, transient HEK293 G16g44, agonist Aristolochic Acid 2 μM
- Format: cell-based
- measurement setup: HEK293, compound at 25 μM; receptor activated to EC80 with agonist; read-out: inhibition of bitter receptor 14
observed property: inhibition at 25 µM

Some entries whose results are on file:
Cc1c(F)cccc1NS(=O)(=O)c1ccc2c(c1)c(=O)n(C)c(=O)n2C; 40 to 60%
CCN(C(=O)CN(C)S(=O)(=O)c1ccc2c(c1)n(C)c(=O)c(=O)n2C)c1cccc(C)c1; 20 to 40%
Cc1cccc(C)c1NS(=O)(=O)c1ccc2c(c1)c(=O)n(C)c(=O)n2C; 20 to 40%
N#C/C(=C\c1ccco1)C(=O)Nc1nnc(-c2ccccc2)s1; > 80%

Entry `Cc1cc2c(cc1S(=O)(=O)Nc1ccc(F)cc1)n(C)c(=O)c(=O)n2C` , inhibition at 25 µM reported as 40 to 60%

Record `COc1ccc2c(c1)-c1ccccc1CN(S(=O)(=O)c1ccc(C(=O)O)cc1)C2` , field inhibition at 25 µM: > 80%

Form field inhibition at 25 µM, entry `Cc1ccccc1NS(=O)(=O)c1ccc2c(c1)c(=O)n(C)c(=O)n2C` : > 80%

----------
- test system: hT2R10 (Homo sapiens (Human), UniProt Q9NYW0)
- Sequence (Q9NYW0 whole entry): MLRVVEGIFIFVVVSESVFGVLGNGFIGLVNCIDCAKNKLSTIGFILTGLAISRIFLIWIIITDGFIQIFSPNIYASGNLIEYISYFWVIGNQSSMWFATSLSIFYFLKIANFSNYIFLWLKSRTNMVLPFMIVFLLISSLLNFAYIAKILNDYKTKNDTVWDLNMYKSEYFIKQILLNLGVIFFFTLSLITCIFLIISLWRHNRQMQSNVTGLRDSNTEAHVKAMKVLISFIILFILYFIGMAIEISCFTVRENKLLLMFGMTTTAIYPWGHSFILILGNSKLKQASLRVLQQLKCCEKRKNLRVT
- experiment: hT2R panel inhibition, transient HEK293 G16g44, agonist Strychnine 50 μM
- Type: cell-based
- measurement setup: HEK293, read-out: inhibition of bitter receptor 10, compound at 25 μM; receptor activated to EC80 with agonist
Catalogue of inhibition at 25 µM values

Completed entries (count: 3):
COc1ccc(OC)c(/C=C2\SC(=S)N(CCC(=O)O)C2=O)c1 [Example 6-1]; > 80%
CCCOc1ccc(CN(Cc2ccccc2)S(=O)(=O)c2ccc(C(=O)O)cc2)cc1 [Example 5-109]; 40 to 60%
CC(C)Oc1ccc(CN(Cc2ccccc2)S(=O)(=O)c2ccc(C(=O)O)cc2)cc1 [Example 5-110]; 40 to 60%

API: the following record is the query input.
So, CCOc1ccc(CN(Cc2ccccc2)S(=O)(=O)c2ccc(C(=O)O)cc2)cc1 [Example 5-108] ? Its inhibition at 25 µM was 40 to 60%

----------
observed property: melting point

Please review the entries below; each comes with its answer.
COc1ccc(CN(Cc2ccco2)S(=O)(=O)c2ccc(C(=O)O)cc2)cc1; 151 to 152 °C
COc1ccc(CN(Cc2ccccc2)S(=O)(=O)c2ccc(C(=O)O)cc2)cc1; 161 to 163 °C
Cc1noc(C)c1Cn1cc(NC(=O)[C@@H](C)c2ccccc2)cn1; 108 to 110 °C

The molecule `Cc1noc(C)c1Cn1cc(N2C(=O)CN(CCc3cccc(F)c3)C2=O)cn1` showed melting point equal to 110 to 111 °C

Record `COc1cccc(CN2C(=O)N(c3cnn(Cc4c(C)noc4C)c3)C(=O)C2(C)C)c1` , field melting point: 107 to 108 °C

The value of melting point measured for the molecule `Cc1noc(C)c1Cn1cc(N2C(=O)CN(CCOc3ccccc3)C2=O)cn1` turned out to be 117 to 118 °C

// melting point value for `COc1ccccc1CCN1CC(=O)N(c2cnn(Cc3c(C)noc3C)c2)C1=O` : 97 to 98 °C

So for `Cc1noc(C)c1Cn1cc(-n2c(=O)n(C)n(Cc3ccccc3)c2=O)cn1` , the logged melting point turned out to be 124 to 126 °C

Field melting point (entry `Cc1noc(C)c1Cn1cc(NC(=O)Cc2ccccc2)cn1` ) reads 106 to 108 °C

melting point recorded for this molecule, `Cc1noc(C)c1Cn1cc(N2C(=O)CN(CCc3ccccc3)C2=O)cn1` , is 95 to 96 °C

----------
- test system: hT2R14 (Homo sapiens (Human))
- experiment: hT2R14 antagonist high-throughput FLIPR assay, stable cell line with G16g44, agonist aristolochic acid
- Format: cell-based
- measurement setup: Table C; read-out: hT2R14 IC50
- Description: The inventors also used the automated fluorimetric […] system FLIPR using a slightly different protocol. A HEK293 cell line stably expressing G16gust44 was transfected with a hT2R expression plasmid, 24 hours later, the cells are loaded and analyzed on FLIPR. […]
observed property: log10(IC50) (log10 of the value in µM)
Recall that a logarithmic scale is used here: each number is log10 of IC50 in µM.

O=C(O)C1CCC(CN(Cc2ccc(F)cc2)S(=O)(=O)c2cccs2)CC1 (stereo not drawn); -0.47
CCc1ccc(CN(CC2CCC(C(=O)O)CC2)C(=S)Nc2ccccc2C)cc1 (stereo not drawn); 0.70

Lookup result for `O=C(O)c1ccc(S(=O)(=O)N(Cc2ccccc2)Cc2ccccc2F)cc1` ; measured log10(IC50): 0.79

The compound identified as `CCc1ccc(CN(Cc2ccccc2)S(=O)(=O)c2ccc(C(=O)O)cc2)cc1` registered its log10(IC50) at 0.93

# compound COc1ccc2c(c1)CCN(S(=O)(=O)c1ccc(C(=O)O)cc1)C2c1ccccc1 (stereo not drawn) ; its log10(IC50) = 0.98

# log10(IC50) of `COc1ccc2c(c1)-c1ccccc1CN(S(=O)(=O)c1ccc(C(=O)O)cc1)C2` = 0.55

Per the records, this compound ( O=C(O)C1CCC(CN(Cc2ccc(F)cc2)S(=O)(=O)c2cccnc2)CC1 (stereo not drawn) ) has log10(IC50) equal to 0.93

The recorded log10(IC50) for entry COc1ccc2c(c1)C(c1ccccc1)N(S(=O)(=O)c1ccc(C(=O)O)cc1)CC2 (stereo not drawn) equals 0.46

log10(IC50) for `COc1ccc(CN(Cc2ccccc2)S(=O)(=O)c2ccc(C(=O)O)cc2)cn1` is 0.51

Value of measured log10(IC50) for the entry COc1ccc(S(=O)(=O)N(Cc2ccc(F)cc2)CC2CCC(C(=O)O)CC2)cc1 (stereo not drawn) : -1.04
